Target: human OGA (Homo sapiens)
Construct: made in house
Sequence (O60502 whole entry): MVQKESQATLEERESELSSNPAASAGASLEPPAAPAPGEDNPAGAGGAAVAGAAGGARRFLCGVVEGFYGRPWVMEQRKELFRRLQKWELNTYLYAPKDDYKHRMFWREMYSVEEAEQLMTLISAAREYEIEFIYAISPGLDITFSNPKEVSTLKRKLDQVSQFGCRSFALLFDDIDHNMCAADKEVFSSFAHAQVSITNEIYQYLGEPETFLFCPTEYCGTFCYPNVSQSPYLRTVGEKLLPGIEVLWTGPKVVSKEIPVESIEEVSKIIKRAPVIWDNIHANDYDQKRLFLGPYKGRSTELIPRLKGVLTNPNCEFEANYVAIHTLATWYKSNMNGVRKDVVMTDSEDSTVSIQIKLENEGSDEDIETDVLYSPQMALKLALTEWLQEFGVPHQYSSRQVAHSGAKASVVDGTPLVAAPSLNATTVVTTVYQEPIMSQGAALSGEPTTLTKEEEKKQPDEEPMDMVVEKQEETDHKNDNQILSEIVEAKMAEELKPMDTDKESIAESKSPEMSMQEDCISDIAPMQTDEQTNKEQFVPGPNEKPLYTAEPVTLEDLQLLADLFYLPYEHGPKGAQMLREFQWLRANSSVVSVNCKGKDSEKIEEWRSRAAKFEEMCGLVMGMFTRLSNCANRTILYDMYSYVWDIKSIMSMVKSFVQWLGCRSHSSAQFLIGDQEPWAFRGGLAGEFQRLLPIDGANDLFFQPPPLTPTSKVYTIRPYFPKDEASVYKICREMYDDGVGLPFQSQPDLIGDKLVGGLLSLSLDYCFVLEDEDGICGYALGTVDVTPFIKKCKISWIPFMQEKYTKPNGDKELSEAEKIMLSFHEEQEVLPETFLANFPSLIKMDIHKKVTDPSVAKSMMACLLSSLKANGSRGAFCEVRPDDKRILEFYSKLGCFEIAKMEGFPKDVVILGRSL
Assay: Determination of IC50 values for inhibition of human OGA
Assay type: biochemical
pIC50: −log10 of the molar value.
readout.name: pIC50

CNC(=O)C[C@H]1[C@@H](O)[C@H](O)[C@H](CO)N1CCCc1ccccc1	4.41
O=C(C[C@H]1N[C@H](CO)[C@@H](O)[C@H]1O)NC1CC1	4.62
CNC(=O)C[C@@H]1[C@H](O)[C@H](O)[C@@H](CO)N1CCCCCCO	7.35
CCCCCCN1[C@H](CC(=O)NCC2CCCCC2)[C@H](O)[C@H](O)[C@H]1CO	4.12
CNC(=O)[C@H]1N[C@@H](CO)[C@@H](O)[C@@H]1O	5.55
CCCCCCN1[C@@H](CO)[C@H](O)[C@H](O)[C@@H]1CC(=O)NC	3.84
CC(C)CNC(=O)C[C@H]1N[C@H](CO)[C@@H](O)[C@H]1O	3.89
CCN1[C@H](CC(=O)NC)[C@H](O)[C@H](O)[C@H]1CO	7.16
CCCCN1[C@H](CC(=O)NC)[C@H](O)[C@H](O)[C@H]1CO	7.25
CNC(=O)C[C@H]1N[C@H](CO)[C@@H](O)[C@H]1O	6.99

A = CC(C)NC(=O)C[C@H]1N[C@H](CO)[C@@H](O)[C@H]1O
B = CCNC(=O)C[C@@H]1[C@@H](O)[C@H](O)[C@@H](CO)N1C(=O)CCc1ccccc1
Prompt: Please indicate which has the smaller reported pIC50: A , or B . Please reply using the label of the selected record.
Response: B
(B: 3.65, A: 3.89)

P = CCNC(=O)C[C@@H]1[C@@H](O)[C@H](O)[C@@H](CO)N1CCCc1ccc(S(=O)(=O)NCC)cc1
Q = CNC(=O)C[C@H]1N[C@H](CO)[C@@H](O)[C@@H]1O
Prompt: // max by pIC50 over [ P , Q ] Answer with the label corresponding to your selection.
Response: P

###

Target: human β-hexosaminidase [human placenta] (HexA/B)
Construct: other: human β-hexosaminidase, human placenta; room temperature, thirty minutes
Experiment: Determination of IC50 values for inhibition of human β-hexosaminidase
Conditions: human β-hexosaminidase, human placenta; room temperature, thirty minutes
readout.name: IC50

Prompt: Dear colleague, I am looking for the recorded IC50 of the following compound: `CCCCNC(=O)C[C@H]1N[C@H](CO)[C@@H](O)[C@H]1O`
Response: > 300 µM

Prompt: Ok, now `CCNC(=O)C[C@@H]1[C@@H](O)[C@H](O)[C@@H](CO)N1CCCc1ccc(S(=O)(=O)NCC)cc1`
Response: 166 µM

Prompt: And then `CCCNC(=O)C[C@H]1N[C@H](CO)[C@@H](O)[C@H]1O` , what is it?
Response: > 300 µM

Prompt: What about this compound? `O=C(C[C@H]1N[C@H](CO)[C@@H](O)[C@H]1O)NC1CC1`
Response: > 300 µM

###

Target: human β-hexosaminidase [human placenta] (HexA/B)
Construct: other: human β-hexosaminidase, human placenta; room temperature, thirty minutes
Assay: Determination of IC50 values for inhibition of human β-hexosaminidase
Conditions: human β-hexosaminidase, human placenta; room temperature, thirty minutes
readout.name: IC50 (µM)

For orientation, consider the following solved cases.
CCCCCCN1[C@H](CC(=O)NC)[C@@H](O)[C@H](O)[C@@H]1CO [Compound A056]	0.0107
CNC(=O)C[C@@H]1[C@H](O)[C@H](O)[C@@H](CO)N1CCCCCCO [Compound A040]	151
CNC(=O)C[C@@H]1[C@H](O)[C@H](O)[C@@H](CO)N1CCCNC(=O)OC(C)(C)C [Compound A065]	58.4

P = CCNC(=O)C[C@@H]1[C@@H](O)[C@H](O)[C@@H](CO)N1CCC(c1ccccc1)c1ccccc1 [Compound A068]
Q = CNC(=O)C[C@@H]1[C@H](O)[C@H](O)[C@@H](CO)N1CCCC(C)C [Compound A018]
R = CNC(=O)C[C@@H]1[C@@H](O)[C@H](O)[C@H](CO)N1CCCc1ccccc1 [Compound A058]
S = CCCCCCN1[C@H](CO)[C@@H](O)[C@H](O)[C@H]1CC(=O)NC [Compound A046]
T = CNC(=O)C[C@H]1N[C@H](CO)[C@@H](O)[C@@H]1O [Compound A044]
Prompt: Hey, quick one: sort these by IC50, low to high? Answer format: list of labels, ordered as asked.
Response: S, R, T, Q, P
